- testDescription: Permeability of the compound by PAMPA-LC-UV analysis
- Format: physicochemical
Please respond with reported Papp for every item in the list.
Answers are plain numbers, in ×10⁻⁶ cm/s.

Take a look at these entries with their results.
>>> number("Cc1ccc(-c2nn(CC(Cl)c3ccccc3)c3ncnc(N)c23)cc1 (stereo not given)")
10.9
>>> number("COc1ccc(-c2nn(CC(Cl)c3ccccc3)c3ncnc(N)c23)cc1 (stereo not given)")
17.5
>>> number("Nc1ncnc2c1c(-c1ccccc1)nn2CC(Cl)c1ccccc1 (stereo not given)")
12.8
>>> number("Nc1ncnc2c1c(-c1ccc(Cl)cc1)nn2CC(Cl)c1ccccc1 (stereo not given)")
9.9

Next compound, Papp to be filled in.
Read the entry Nc1ncnc2c1c(-c1ccc(F)cc1)nn2CC(Cl)c1ccccc1 (stereo not given) and write its reported Papp.
16.5

Source of measurements: ChEMBL document CHEMBL3576773
